The values you see were collected from paper PMC11280027.

Please respond with reported efflux ratio at 60 min for every item in the list.
# Measurement protocol: Bidirectional transport study with assay-ready Caco-2 cells, 7-day versus 21-day cultivation (Figure S2)
# Stated conditions: human, Caco-2, pH 7.4

Looking up COc1cc2nc(N3CCN(C(=O)c4ccco4)CC3)nc(N)c2cc1OC [Prazosin] , I found its efflux ratio at 60 min recorded as > 2

molecule CN/C(=N/CCSCc1nc[nH]c1C)NC#N [Cimetidine] , efflux ratio at 60 min observed: > 2

Summary for this molecule, O=C(O)c1cc(/N=N/c2ccc(S(=O)(=O)Nc3ccccn3)cc2)ccc1O [Sulfasalazine] : efflux ratio at 60 min is > 2
